molecular target: CDK7 (Homo sapiens); experiment: experiment of inhibiting kinase activity (Caliper mobility shift assay), CDK7; assay type: biochemical; settings: at 100 nM; read-out: inhibition rate CDK7
Sequence (P50613 whole entry, species assumed): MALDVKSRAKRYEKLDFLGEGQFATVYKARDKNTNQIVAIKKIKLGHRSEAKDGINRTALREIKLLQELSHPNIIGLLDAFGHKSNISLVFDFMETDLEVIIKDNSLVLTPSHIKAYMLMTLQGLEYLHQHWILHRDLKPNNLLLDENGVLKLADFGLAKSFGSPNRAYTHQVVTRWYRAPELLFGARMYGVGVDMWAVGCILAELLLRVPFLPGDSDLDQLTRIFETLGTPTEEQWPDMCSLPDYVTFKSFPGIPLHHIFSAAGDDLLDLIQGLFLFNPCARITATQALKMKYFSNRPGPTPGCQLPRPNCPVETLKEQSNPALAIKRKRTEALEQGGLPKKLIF
Sequence (P51946 whole entry partner, species assumed): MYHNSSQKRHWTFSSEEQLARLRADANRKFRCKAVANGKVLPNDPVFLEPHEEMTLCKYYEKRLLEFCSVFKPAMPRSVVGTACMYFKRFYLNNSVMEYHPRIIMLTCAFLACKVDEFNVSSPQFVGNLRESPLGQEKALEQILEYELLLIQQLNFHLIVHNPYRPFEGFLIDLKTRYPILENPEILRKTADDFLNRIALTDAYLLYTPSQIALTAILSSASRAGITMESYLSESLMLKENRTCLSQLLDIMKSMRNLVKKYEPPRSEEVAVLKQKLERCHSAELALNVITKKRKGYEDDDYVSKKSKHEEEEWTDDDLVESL
Sequence (P51948 whole entry partner, species assumed): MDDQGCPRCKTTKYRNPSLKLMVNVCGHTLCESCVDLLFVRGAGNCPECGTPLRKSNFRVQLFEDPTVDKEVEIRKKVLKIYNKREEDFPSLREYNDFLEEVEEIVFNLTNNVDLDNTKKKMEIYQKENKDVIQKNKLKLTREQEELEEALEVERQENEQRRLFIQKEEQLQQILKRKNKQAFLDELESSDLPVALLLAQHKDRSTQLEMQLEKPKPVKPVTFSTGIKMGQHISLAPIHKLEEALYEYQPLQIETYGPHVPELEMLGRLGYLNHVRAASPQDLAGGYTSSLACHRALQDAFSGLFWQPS
Assign inhibition at 0.1 µM to each entry below.

Given CC(C)S(=O)(=O)c1ccccc1Nc1nc(Nc2ccc3c(c2)OCCOCCNCCO3)nc2[nH]ccc12 , state its recorded inhibition at 0.1 µM.
> 80%

// next record CC(C)S(=O)(=O)c1ccccc1Nc1nc(Nc2ccc3c(c2)OCCOCCN(C)CCO3)nc2[nH]cnc12
> 80%

Repeat with CN1CCOCCOc2cc(Nc3nc(-c4cn(C)c5ccccc45)c4cc[nH]c4n3)ccc2OCC1
40 to 79%
